- testedSystem: T1, NT-4 (neurotrophin-4) (Homo sapiens, UniProt P34130 P34130:81-210)
- T1 sequence: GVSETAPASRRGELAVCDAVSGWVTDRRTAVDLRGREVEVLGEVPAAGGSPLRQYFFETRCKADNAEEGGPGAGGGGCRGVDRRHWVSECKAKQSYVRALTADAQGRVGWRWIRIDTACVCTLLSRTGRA
- test: SPR; scarcely bound
- conditionsUsed: tags: R&D Systems; chain copies: 2

- binder: "GGGUCCUGUUGCGUAGUUUCCGUCUGCGUGACUGUUACCC (ssRNA, 2'-F C/U, dA, 2'-OH G) [SEQ ID NO: 108]"
  binding result: "no binding"
- binder: "GGGUCCUGCUGUGUAGUUUCCGUCUGCAUGGUUGUUACCC (ssRNA, 2'-F C/U, dA, 2'-OH G) [SEQ ID NO: 113]"
  binding result: "no binding"
- binder: "GGGUCCUGUUGCUAAGUUUCCGUCUUAGUGACUGUUACCC (ssRNA, 2'-F C/U, dA, 2'-OH G) [SEQ ID NO: 105]"
  binding result: "no binding"

All figures here come from patent US20140235701.
